These entries and their values trace back to patent US11000511B2.

# inhibition at 50 µM listing for each entry below
- Measured Target: LasB elastase activity in dialysed supernatant from P. aeruginosa strain PA01 (Pseudomonas aeruginosa)
- Construct: uses as source of enzyme dialysed supernatant from P. aeruginosa; endogenous in cells; host or cells: P. aeruginosa strain PA01 culture supernatant, filtered and dialysed
- Sequence (P14756 198-498): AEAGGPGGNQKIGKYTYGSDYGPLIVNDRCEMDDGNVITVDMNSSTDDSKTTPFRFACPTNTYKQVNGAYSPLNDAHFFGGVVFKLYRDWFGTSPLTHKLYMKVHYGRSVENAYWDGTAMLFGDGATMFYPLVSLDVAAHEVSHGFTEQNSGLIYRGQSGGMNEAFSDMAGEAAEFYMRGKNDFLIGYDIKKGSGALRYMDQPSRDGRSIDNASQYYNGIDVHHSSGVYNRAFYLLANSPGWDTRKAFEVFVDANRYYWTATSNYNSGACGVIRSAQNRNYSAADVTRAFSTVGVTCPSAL
- Protocol Notes: Elastin Congo Red assay to determine % inhibition (Assay 1)
- Format: biochemical
- Details: read-out: Elastin hydrolysis % inhibition @ 50/25 μM inhibitor concentration Assay 1

Molecule	inhibition at 50 µM
Cc1oc2ccccc2c1CNC(=O)C1(CC(=O)O)Cc2ccccc2C1 [Example 20]	30 to 60%
O=C(O)CC1(C(=O)NCc2nc3c(F)cccc3s2)Cc2ccccc2C1 [Example 60]	> 60%
CN(C)CCOc1ccc2sc(CNC(=O)C3(CC(=O)O)Cc4ccccc4C3)nc2c1 [Example 112]	> 60%
O=C(O)CC1(C(=O)NCc2nc3c(s2)CNCC3)Cc2ccccc2C1 [Example 44]	15 to 30%
NCCCc1ccc2nc(CNC(=O)C3(CC(=O)O)Cc4ccccc4C3)sc2c1 [Example 38]	> 60%
Cc1cccc2sc(CNC(=O)C3(CC(=O)O)Cc4ccccc4C3)nc12 [Example 65]	> 60%
NCCC1CN(c2ccc3nc(CNC(=O)C4(CC(=O)O)Cc5ccccc5C4)sc3c2)C1 [Example 70]	> 60%
O=C(O)CC1(C(=O)NCC2COc3ccccc3O2)Cc2ccccc2C1 (stereo not drawn) [Example 17]	30 to 60%
C[N+](C)(C)CCCc1ccc2nc(CNC(=O)C3(CC(=O)O)Cc4ccccc4C3)sc2c1 [Example 37]	> 60%

====

# Ki listing for each entry below
- Measured Target: purified LasB protein from P. aeruginosa (Pseudomonas aeruginosa, UniProt P14756)
- Construct: purchased Merck or Charles River Laboratories
- Sequence (P14756 198-498): as above
- Protocol Notes: Fluorometric assay to determine Ki (Assay 1)
- Type: biochemical
- Details: Ki (μM) Assay 1, purified LasB, substrate Abz-Ala-Gly-Leu-Ala-p-Nitro-Benzyl-Amide 250 μM, Ki calculated from IC50; inhibitor 0.006 to 200 μM
Result Type: Ki

1. CN(C)CC#Cc1ccc2sc(CNC(=O)C3(CC(=O)O)Cc4ccccc4C3)nc2c1 < 0.3 µM
2. C[N+](C)(C)CCNC(=O)[C@H](Cc1c[nH]c2ccccc12)NC(=O)C1(CC(=O)O)Cc2ccccc2C1 2 to 10 µM
3. NCCC1CN(c2ccc3nc(CNC(=O)C4(CC(=O)O)Cc5ccccc5C4)sc3c2)C1 < 0.3 µM
4. C[N+](C)(C)CCOc1ccc2nc(CNC(=O)C3(CC(=O)[O-])Cc4ccccc4C3)sc2c1 0.3 to 2 µM
5. O=C(O)CC1(C(=O)NCc2nc3c(N4CCOCC4)cccc3s2)Cc2ccccc2C1 0.3 to 2 µM
6. CN1CCN(c2ccc3sc(CNC(=O)C4(CC(=O)O)Cc5ccccc5C4)nc3c2)CC1 < 0.3 µM
7. CN1CCc2nc(CNC(=O)C3(CC(=O)O)Cc4ccccc4C3)sc2C1 0.3 to 2 µM
8. O=C(O)CC1(C(=O)NCc2nc3ccccc3s2)Cc2cc(Cl)c(Cl)cc2C1 0.3 to 2 µM

====

- Measured Target: purified LasB protein from P. aeruginosa (Pseudomonas aeruginosa, UniProt P14756)
- Construct: purchased Merck or Charles River Laboratories
- Protocol Notes: Fluorometric assay to determine Ki (Assay 1)
- Assay type: biochemical
- Details: Ki (μM) Assay 1, purified LasB, substrate Abz-Ala-Gly-Leu-Ala-p-Nitro-Benzyl-Amide 250 μM, Ki calculated from IC50; inhibitor 0.006 to 200 μM

Compound	Ki
Cn1c(CNC(=O)C2(CC(=O)O)Cc3ccccc3C2)cc2ccccc21	< 0.3 µM
O=C(O)CC1(C(=O)NCc2coc3ccccc23)Cc2ccccc2C1	0.3 to 2 µM
COc1ccc2nc(CNC(=O)C3(CC(=O)O)Cc4ccccc4C3)sc2c1	< 0.3 µM
NC1CC(Oc2ccc3nc(CNC(=O)C4(CC(=O)O)Cc5ccccc5C4)sc3c2)C1 (mixture of isomers)	0.3 to 2 µM
O=C(O)CC1(C(=O)NCCc2cc3ccccc3s2)Cc2ccccc2C1	2 to 10 µM
